# target-entity: MAGL (Homo sapiens (Human))
# Sequence (Q99685 whole entry): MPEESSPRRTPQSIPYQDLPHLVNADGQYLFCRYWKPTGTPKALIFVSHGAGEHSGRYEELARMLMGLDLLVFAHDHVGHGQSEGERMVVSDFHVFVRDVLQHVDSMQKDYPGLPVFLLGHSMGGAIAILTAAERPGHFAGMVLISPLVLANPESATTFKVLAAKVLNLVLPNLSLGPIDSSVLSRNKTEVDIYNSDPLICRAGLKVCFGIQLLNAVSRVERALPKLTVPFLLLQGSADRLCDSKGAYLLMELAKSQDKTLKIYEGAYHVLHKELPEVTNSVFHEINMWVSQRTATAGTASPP
# protocol-notes: In vitro competitive activity-based protein profiling (human prefrontal cortex membrane fractions, FP-Rh probe), MAGL band
# condition-info: read-out: MAGL IC50 (μM) (human); human prefrontal cortex membrane fractions

molecule | IC50
O=C(O)c1ccn(C(=O)N2CC3CN(Cc4cc(Cl)cc(C(F)(F)F)c4)CC3C2)n1 (stereo not shown) | < 0.1 µM
O=C(O)c1ccn(C(=O)N2CCN(Cc3cc(Cl)cc(Oc4ccc(Cl)cc4)c3)CC2)n1 | < 0.1 µM
CNC(=O)c1ccn(C(=O)N2CCC3(CCN(Cc4cc(Cl)ccc4Cl)C3)C2)n1 (stereo not shown) | < 0.1 µM
O=C(O)c1ccn(C(=O)N2CCN(Cc3ccc(C(F)(F)F)cc3N3CCOCC3)CC2)n1 | < 0.1 µM
